assay: Quantitative High-Throughput drug screen in 47 multiple myeloma cell lines against the NCATS MIPE library collection: XG1_PLB cell viability assay (AID 1919866); conditions: CellTiter-Glo ATP, 48 h; series mostly up to 45.8 µM; note: nearly all actives have a fitted effect of over 35% in size
Results filed as inconclusive are left out. The source made the active and inactive calls. Calls come from the whole dose curve; as a rule, active = well fitted cell-killing curve with a large enough effect; inconclusive = small, poorly fitted or top-dose-only effect, or effect the other way; inactive = no such curve, though single readings can be large or run the other way.
Outcomes: t = active, f = inactive

INSERT INTO results (molecule, assigned_label) VALUES
  ('CC(=O)OCC(=O)[C@@]1(O)CC[C@H]2[C@@H]3CCC4=CC(=O)CC[C@]4(C)[C@@H]3C(=O)C[C@@]21C', 'f'),
  ('N#Cc1ccc(COC[C@H]2O[C@@H](n3c(NCc4ccc(Cl)c(Cl)c4)nc4c(N)ncnc43)[C@@H](O)[C@@H]2O)cc1', 't'),
  ('Cn1cc(-c2cnn3c(N)c(Br)c([C@H]4CCCNC4)nc23)cn1', 't'),
  ('N=c1ccn2c(n1)O[C@H]1[C@@H](O)[C@@H](CO)O[C@H]12', 't'),
  ('Cc1noc(-c2ccc(CSCCC(=O)O)cc2)c1NC(=O)OC(C)c1ccccc1Cl (stereo not drawn)', 'f'),
  ('CN1C(C(=O)Nc2ccccn2)=C(O)c2sc(Cl)cc2S1(=O)=O', 't'),
  ('CC(=O)O[C@]1(C(C)=O)CC[C@H]2[C@@H]3C=C(C)C4=CC(=O)CC[C@]4(C)[C@@H]3CC[C@@]21C', 't'),
  ('C=CC1=C(C(=O)O)N2C(=O)[C@@H](NC(=O)C(=NO)c3csc(N)n3)[C@H]2SC1', 'f'),
  ('COc1cc(N2CCC(C(N)=O)CC2)ccc1Nc1nc(N)c(Cl)c(Nc2ccccc2S(=O)(=O)C(C)C)n1', 't'),
  ('CCN1CCN(C(=O)N[C@H](C(=O)N[C@@H]2C(=O)N3C(C(=O)O)=C(CSc4nnnn4C)CS[C@@H]23)c2ccc(O)cc2)C(=O)C1=O', 'f'),
  ('CC(C)N(CC[C@H](c1ccccc1)c1cc(CO)ccc1O)C(C)C', 'f'),
  ('O=C(CCCCCCC(=O)Nc1cccnc1)NO', 't'),
  ('COc1cc(C(=O)NC2CCN(C)CC2)ccc1Nc1ncc2c(n1)N(C1CCCC1)CCC(=O)N2C(C)C', 't'),
  ('Nc1nc(=O)n([C@H]2CSC(CO)O2)cc1F (stereo partly drawn)', 'f'),
  ('c1cncc(CN2CCC(n3ncc4c(N5CCOCC5)nc(-c5ccc6[nH]ccc6c5)nc43)CC2)c1', 't'),
  ('OCCN1C[C@H](O)[C@@H](O)[C@H](O)[C@@H]1CO', 'f'),
  ('COc1cc(O)c2c(c1)C1OC1C[C@H](O)[C@H](O)C(=O)C=CC[C@H](C)OC2=O (stereo partly drawn)', 't'),
  ('COc1cccc2c1C(=O)c1c(O)c3c(c(O)c1C2=O)C[C@@](O)(C(=O)CO)C[C@@H]3O[C@H]1C[C@H](N)[C@H](OC2CCCCO2)[C@H](C)O1 (stereo partly drawn)', 't');

###

assay: qHTS of pediatric cancer cell lines to identify multiple opportunities for drug repurposing: Confirmatory screen for DAOY cells (AID 1347114); details: DAOY medulloblastoma cells viability, cytotoxicity qHTS; series mostly up to 45.9 µM; note: nearly all actives have a fitted effect of over 65% in size
Results filed as inconclusive are left out. Activity calls are given as the source filed them. Calls come from the whole dose curve; as a rule, active = well fitted cell-killing curve with a large enough effect; inconclusive = small, poorly fitted or top-dose-only effect; inactive = no such curve, though single readings can be large or run the other way.
Outcomes: T for active, F for inactive

INSERT INTO measurements (substance_smiles, assigned_label) VALUES
  ('CCc1cnn2c(NCc3ccc[n+]([O-])c3)cc(N3CCCC[C@@H]3CCO)nc12', 'F'),
  ('COC(=O)[C@@H]1[C@H]2C[C@@H]3c4[nH]c5ccccc5c4CCN3C[C@@H]2CC[C@@H]1O', 'F'),
  ('C[C@H]1[C@@H](OC(=O)CCC(=O)O)O[C@@H]2O[C@@]3(C)CC[C@@H]4[C@H](C)CC[C@@H]1[C@@]24OO3', 'T'),
  ('Cc1cc(Nc2ncc3c(n2)N(C)C(=O)N(c2cc(NC(=O)c4cccc(C(F)(F)F)c4)ccc2C)C3)n(C)n1', 'T'),
  ('CC(C)(N)c1ccc(-c2nc3ccccc3nc2-c2ccccc2)cc1', 'F'),
  ('CCOC(=O)[C@@H](N)Cc1ccc(-c2cc(O[C@H](c3ccc(Cl)cc3-n3ccc(C)n3)C(F)(F)F)nc(N)n2)cc1', 'F'),
  ('COC1=C2C[C@@H](C)C[C@H](OC)[C@@H](O)[C@@H](C)C=C(C)[C@H](OC(N)=O)[C@@H](OC)C=CC=C(C)C(=O)NC(=CC1=O)C2=O', 'T'),
  ('COC(=O)C=CC(=O)OC', 'F'),
  ('COc1ccc(C[C@@H](C)[C@@H](C)Cc2ccc(OC)c(OC)c2)cc1OC', 'T');

###

assay: Quantitative High-Throughput drug screen in 47 multiple myeloma cell lines against the NCATS MIPE library collection: KMS28PE_JCRB cell viability assay (AID 1918983); details: KMS28PE multiple myeloma viability, CellTiter-Glo ATP, 48 h; series mostly up to 45.8 µM; note: nearly all actives have a fitted effect of over 35% in size
Results filed as inconclusive are left out. Calls of active or inactive are those of the source. Calls come from the whole dose curve; as a rule, active = well fitted cell-killing curve with a large enough effect; inconclusive = small, poorly fitted or top-dose-only effect, or effect the other way; inactive = no such curve, though single readings can be large or run the other way.
Outcomes: active, inactive

INSERT INTO assay_data (compound, assigned_label) VALUES
  ('C[C@@H]1[C@H](C)CC[C@]2(C(=O)O)CC[C@]3(C)C(=CC[C@@H]4[C@@]5(C)C[C@@H](O)[C@H](O)[C@@](C)(CO)[C@H]5CC[C@]43C)[C@@H]12', 'inactive'),
  ('COC(=O)[C@@H]1[C@H]2C[C@@H]3c4[nH]c5ccccc5c4CCN3C[C@@H]2CC[C@@H]1O', 'inactive'),
  ('COc1cc(N2CCC(C(N)=O)CC2)ccc1Nc1nc(N)c(Cl)c(Nc2ccccc2S(=O)(=O)C(C)C)n1', 'active'),
  ('Nc1ccc(C(=O)Nc2cccc(-c3nc(N4CCOCC4)c4oc5ncccc5c4n3)c2)cn1', 'active'),
  ('CCOC(=O)C1=C(C)NC(=S)NC1c1cccc(O)c1 (configuration not stated)', 'active'),
  ('O=c1[nH]c(=O)n([C@H]2C[C@@H](O)[C@@H](CO)O2)cc1C=CBr', 'inactive'),
  ('O=C(O)C[C@H](O)C[C@H](O)C=Cc1c(C2CC2)nc2ccccc2c1-c1ccc(F)cc1', 'active'),
  ('CC(C)(N)c1ccc(-c2nc3ccccc3nc2-c2ccccc2)cc1', 'active'),
  ('Cc1cnn(C)c1C(=O)Nc1cc(Nc2ccc3c(C=Cc4ccccn4)n[nH]c3c2)ccc1F', 'active'),
  ('COc1cc([C@@H]2c3cc4c(cc3[C@H](O)[C@H]3COC(=O)[C@@H]23)OCO4)cc(OC)c1OC', 'active'),
  ('C[C@H]1COc2c(N3CCN(C)CC3)c(F)cc3c(=O)c(C(=O)O)cn1c23', 'inactive'),
  ('CCCCCCCCc1ccc(CCC(N)(CO)CO)cc1', 'active'),
  ('CC(C)C[C@H](NC(=O)[C@@H](NC(=O)c1cccc(-c2ccccc2)n1)[C@@H](C)O)B(O)O', 'active'),
  ('COc1cc(C)c(C=CC(C)=CC=CC(C)=CC(=O)O)c(C)c1C', 'inactive'),
  ('CC(C)N1[N]C(=C2C=c3cc(O)ccc3=N2)c2c(N)ncnc21', 'active'),
  ('CCC(C(=O)O)C1CCC(C)C(C(C)C(O)C(C)C(=O)C(CC)C2OC3(C=CC(O)[C@@]4(CC[C@](C)(C5CC[C@@](O)(CC)C(C)O5)O4)O3)C(C)CC2C)O1 (some centres not stated)', 'active'),
  ('C[C@@]12C[C@@]3(O)O[C@@H](O1)[C@]1(COC(=O)c4ccccc4)[C@@H]3C[C@@]12O[C@@H]1O[C@H](CO)[C@@H](O)[C@H](O)[C@@H]1O', 'inactive');

###

assay: qHTS of pediatric cancer cell lines to identify multiple opportunities for drug repurposing: Primary screen for SJ-GBM2 cells (AID 1347091); conditions: SJ-GBM2 viability, CellTiter-Glo luminescence, 48 h; series mostly up to 46 µM
Inconclusive results are not listed. Activity calls are given as the source filed them. Calls follow the shape of the dose curve; as a rule, active = well fitted cell-killing curve with a large enough effect; inconclusive = small, poorly fitted or top-dose-only effect; inactive = no such curve, though single readings can be large or run the other way.
Outcomes: active, inactive

INSERT INTO results (compound, assigned_label) VALUES
  ('C[C@@]12C(=O)OC(=O)[C@@]1(C)C1CCC2O1', 'active'),
  ('Cn1cnc2c(F)c(Nc3ccc(Br)cc3F)c(C(=O)NOCCO)cc21', 'inactive'),
  ('O=C1c2c(O)cccc2[C@@H]([C@@H]2O[C@H](CO)[C@@H](O)[C@H](O)[C@H]2O)c2cc(CO)cc(O)c21', 'inactive'),
  ('CN1[C@H]2CC(OC(=O)[C@@H](CO)c3ccccc3)C[C@H]1[C@H]1O[C@H]12 (some centres undefined)', 'inactive'),
  ('CC(=O)C1=C(O)C=C2Oc3c(C(C)=O)c(O)c(C)c(O)c3C2(C)C1=O (centres undefined)', 'active'),
  ('O=C1NC(O)CCN1[C@@H]1O[C@H](CO)[C@H](O)[C@H]1O (some centres undefined)', 'inactive'),
  ('Cn1cc(-c2ccc3ncc(Cc4ccc5ncccc5c4)n3n2)cn1', 'active'),
  ('COc1ccc(S(=O)(=O)Nc2cccnc2Nc2ccc(O)cc2)cc1', 'active'),
  ('NC[C@H]1O[C@H](O[C@H]2[C@@H](O)[C@@H](O[C@H]3O[C@H](CO)[C@@H](O)[C@H](N)[C@@H]3O)[C@H](N)C[C@@H]2N)[C@H](N)C[C@H]1O', 'inactive');
